- experimentDescription: Protein binding in rat plasma by rapid equilibrium dialysis
- Assay type: ADME, cell-free
- testContext: read-out: PPB (converted)
readout: fraction unbound

CC(=O)N1CCN(c2ccc(NC(=O)Cc3cnc(-c4ccnc(F)c4)c(C)c3)nc2)CC1 ... 0.169

---

- experimentDescription: Oral bioavailability in Balb/c mouse at 5 mg/kg via gavage by LC/MS/MS analysis
- Format: ADME, organism-based
- testContext: in vivo
readout: bioavailability (%)

CC(=O)N1CCN(c2ccc(NC(=O)Cc3cnc(-c4ccnc(F)c4)c(C)c3)nc2)CC1 ... 96

---

- experimentDescription: Volume of distribution at steady state in rat by LC/MS/MS analysis
- Assay type: ADME
- testContext: in vivo, read-out: Vdss
readout: Vd (L/kg)

CC(=O)N1CCN(c2ccc(NC(=O)Cc3cnc(-c4ccnc(F)c4)c(C)c3)nc2)CC1 ... 0.7
